test system: T. gondii RH tachyzoites; experiment: Influence on T. gondii proliferation ([3H]uracil incorporation) in infected Vero cells; format: cell-based, Toxoplasma gondii; settings: Toxoplasma gondii, Vero, IC50 greater than 125 µg/mL (highest concentration tested), calculated by extrapolation of the curves (GraphPad Prism); read-out: IC50 (50% inhibition of T. gondii proliferation in vitro), extrapolated
Recorded measurements of IC50, one per entry

- MOLECULE: "Nc1ccc(S(=O)(=O)Nc2ncccn2)cc1 [Sulfadiazine, reference compound]"
  IC50: "~2720 µg/mL"
- MOLECULE: "Cc1nc[nH]c1C(=O)NNC(=S)Nc1ccc(N(C)C)cc1"
  IC50: "~165 µg/mL"
- MOLECULE: "Cc1nc[nH]c1C(=O)NNC(=S)NCc1ccccc1"
  IC50: "~150 µg/mL"
- MOLECULE: "COc1ccc(NC(=S)NNC(=O)c2[nH]cnc2C)cc1OC"
  IC50: "~175 µg/mL"
- MOLECULE: "Cc1ccccc1NC(=S)NNC(=O)c1[nH]cnc1C"
  IC50: "~150 µg/mL"

Sourced from paper PMC6384730
